- tgt: T1, mouse IL-4R (mouse, UniProt P16382 26-233, limits assumed)
- T1 sequence (looked up): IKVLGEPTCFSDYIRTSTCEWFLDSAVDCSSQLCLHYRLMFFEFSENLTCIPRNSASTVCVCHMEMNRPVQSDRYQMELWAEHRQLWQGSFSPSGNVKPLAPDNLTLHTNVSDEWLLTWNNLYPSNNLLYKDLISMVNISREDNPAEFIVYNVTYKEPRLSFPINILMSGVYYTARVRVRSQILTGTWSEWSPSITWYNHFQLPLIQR
- testDescription: binding affinity test of Example 2 (method not restated)
recordedEndpoint: binding result

binder	recordedEndpoint	testResult
VAK10G12-5 (antibody, V domains shown, Apparently tested with mouse constant region (anti-mouse IgG capture/detection)) VH: QVQLVESGGGVVQPGGSLRLSCAASGFTFSSYGMHWVRQAPGRGLEWVAVLSYDGSKEFYADSVKVRFTVSRDNSKNTLYLQMSSLRVEDTAIYFCAKEGRTGNWFDPWGQGTLVAVSS VL: DIQMTQSPSSLSASVGDRVTITCRASQAINNFLAWFQQKPGKTPKSLIFATSSLQSGVPSRFSGSESGTDFTLTISSLQPEDFATYYCQQYNSHPWTFGQGTKVEIK	binding result	no binding
VAB 16G1-1 (antibody, V domains shown, 403/405; 407/409 without saying which was assayed; Apparently tested with mouse constant region (anti-mouse IgG capture/detection)) VH: EVKLAESGGGLVQPGGSLRLSCAASGFTFSSHWMNWVRQAPGKGLEWVANIKQDGSDKYYVDSVKGRFTISRDNAKNSLYLQLNSLIAEDTAVYYCARDRGVRPPRGAFDIWGQGTMVTVSS VL: DIQMTQSPSSVSASVGDRVTITCRASQGISSWLAWYQQKPGKAPKLLIYAASSFQSGVPSRFSGSGSGTDFTLTISSLQPEDFATYFCQQANSFPLTFGGGTTVEIK	binding result	no binding
VAB 8G10-1 (antibody, V domains shown, Apparently tested with mouse constant region (anti-mouse IgG capture/detection)) VH: QVQLVQSGPEVKKPGASVKVSCKASGYTFTNYGISWVRQAPGQGLEWMGWISVYNGNINYAQKLQGRVTMTTDTSTSTAYMDLRSLRSDDTAVYYCARGSGYDFDYWGQGTLVTVSS VL: AIQMTQSPSSLSASVGDRVTITCRASQDIRNALGWYQQKPGKAPKLLIYAASSLQSGVPSRFSGSASGTDFTLTISSLQPEDFAAYYCLQDYNYPYTFGQGTKLEIK	binding result	no binding
